FYI, the data here is from patent US20240116985A1.

- Tested On: T1, full-length beta-Catenin (Uniprot ID P35222) (Homo sapiens (Human), UniProt P35222 2-781)
- T1 construct: Also used here for the endogenous beta-catenin of the DLD1 TCF reporter cells; also called bCat; B-Catenin
- T1 sequence: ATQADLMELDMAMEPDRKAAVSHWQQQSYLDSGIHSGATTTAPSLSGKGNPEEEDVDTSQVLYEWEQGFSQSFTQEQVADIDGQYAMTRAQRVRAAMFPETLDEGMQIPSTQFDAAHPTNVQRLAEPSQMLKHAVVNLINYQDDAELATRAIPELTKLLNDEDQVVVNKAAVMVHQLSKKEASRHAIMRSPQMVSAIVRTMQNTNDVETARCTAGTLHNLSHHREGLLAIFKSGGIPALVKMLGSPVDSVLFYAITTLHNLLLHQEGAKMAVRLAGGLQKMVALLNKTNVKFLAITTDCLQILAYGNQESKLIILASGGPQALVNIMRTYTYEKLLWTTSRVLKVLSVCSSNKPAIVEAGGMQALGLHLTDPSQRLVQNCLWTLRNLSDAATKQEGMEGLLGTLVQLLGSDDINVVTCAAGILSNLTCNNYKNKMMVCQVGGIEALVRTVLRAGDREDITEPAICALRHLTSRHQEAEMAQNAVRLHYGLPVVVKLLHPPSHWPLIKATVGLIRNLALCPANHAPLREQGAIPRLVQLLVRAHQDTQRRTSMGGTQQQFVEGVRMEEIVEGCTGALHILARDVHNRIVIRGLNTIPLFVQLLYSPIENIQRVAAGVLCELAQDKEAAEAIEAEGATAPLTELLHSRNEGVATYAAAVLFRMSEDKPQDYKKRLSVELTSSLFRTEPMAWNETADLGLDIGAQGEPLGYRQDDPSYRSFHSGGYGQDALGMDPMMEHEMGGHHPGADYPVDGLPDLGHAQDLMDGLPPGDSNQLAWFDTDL
- Procedure Summary: fluorescence polarization competition; full-length beta-catenin, competitor 5FAM-TCF4(10-53) probe
- Procedure: The plate was incubated protected from light for 60 minutes at 20° C. prior to read. Reads were performed on a CLARIOstar plate reader (BMG Labtech) in duplicate, and data were fitted to a 1:1 binding model with hill slope using an in-house script. All provided concentrations are final concentrations.
Starred links: 1 amine or outer side, 2 acyl side, 3 side chain; linkers in the order of their positions; H or OH if unused. Positions of bridges follow the written chain, without caps; N, C: chain ends. Non-standard residues stand in square brackets, D forms with d. Primed or numbered codes have the meaning given here. B5(11) = 2,2-bis(4-pentenyl)glycine = 2-amino-2-(pent-4-en-1-yl)hept-6-enoic acid (stitching residue, bears both staples), C=CCCCC(CCCC=C)(N[*:1])C(=O)[*:2]; B5(4) = 2,2-bis(4-pentenyl)glycine = 2-amino-2-(pent-4-en-1-yl)hept-6-enoic acid (stitching residue), C=CCCCC(CCCC=C)(N[*:1])C(=O)[*:2]; Bta = N[C@@H](Cc1csc2ccccc12)C(=O)O; αAllylPro = C=CC[C@@]1(C(=O)O)CCCN1; NMeH = CN[C@@H](Cc1c[nH]cn1)C(=O)O; S8 = C=CCCCCCC[C@](C)(N)C(=O)O
Metric: log10 EC50 (log10 of the value in nM)

| Binder | Numeric Value |
| --- | --- |
| Ac-[αAllylPro]DL[B5(11)]DEAAFN[S8]F[Bta][NMeH]-NH2 (staple 1-4, 4-11; not fully specified, Stapled peptide composition) [I-747] | 3.38 |
| Ac-[αAllylPro]DL[B5(4)]DEAAFN[S8]F[Bta][dS]-NH2 (staple 1-4, 4-11, Stapled peptide composition) [I-756] | 1.75 |
| Ac-[αAllylPro]DL[B5(4)]DEAAFN[S8]F[Bta][dN]-NH2 (staple 1-4, 4-11; also: earlier-eluting HPLC peak (staple isomer), Stapled peptide composition) [I-757] | 1.81 |
| Ac-[αAllylPro]DL[B5(4)]DEAAFN[S8]F[Bta][dN]-NH2 (staple 1-4, 4-11; also: later-eluting HPLC peak (staple isomer), Stapled peptide composition) [I-758] | 1.67 |
| XDLXDEAAFNXFXT (not fully specified; as printed: Ac-PL3-Asp-Leu-B5-Asp-Glu-Ala-Ala-Phe-Asn-S8-Phe-BztA-Thr-NH2; N-terminal Ac, C-terminal NH2; stapled by olefin metathesis PL3(1)-B5(4) and B5(4)-S8(11), Stapled peptide composition) [I-748] | 1.73 |
